PROTOCOL SUMMARY: Cy5 fluorescence quenching or enhancement artefacts, artefact control for HCV NS3 helicase inhibitor project, biochemical, LOPAC1280 (AID 687037)
ASSAY SETUP: Cy5-DNA-NS3h complex fluorescence interference counterscreen
Form field: fluorescence ratio (interference) (one value per entry).
MEASURED PARAMETER: fluorescence ratio (interference)

# COMPOUND, RECORDED RESULT
data = [
    ("CCCCC/C=C\\C/C=C\\C/C=C\\C/C=C\\CCCC(=O)NCC(=O)O", 1),
    ("O=c1c2ccccc2[se]n1-c1ccccc1", 1),
    ("O=C1CC[C@@]2(O)C3Cc4ccc(O)c5c4C2(CCN3CC2CC2)[C@H]1O5 (some centres undefined)", 1),
    ("CC(=O)NBr", 0.9),
    ("COc1ccc2[nH]cc(CCN)c2c1", 1),
    ("[Cl-].[Cl][Pt].[NH2-].[NH2-].c1ccncc1", 0.9),
    ("CC(C)(C)c1o[nH]c(=O)c1CC(N)C(=O)O (centres undefined)", 1),
    ("O=C(O)c1cc[c]([Hg][Cl])cc1", 1),
    ("NNC(=O)c1ccc(O)cc1", 1.1),
    ("COC(=O)C1=CCCN(C)C1", 1),
    ("CC[C@@H]1C(=O)OC[C@@H]1Cc1cncn1C", 1),
    ("CN1C[C@H](CNC(=O)OCc2ccccc2)C[C@@H]2c3cccc4c3c(cn4C)C[C@H]21", 1),
    ("C=CCN1CCc2cccc3c2[C@H]1Cc1ccc(O)c(O)c1-3", 1.1),
    ("CN1CCc2cc(O)cc3c2[C@H]1Cc1ccc(O)c(O)c1-3", 1),
]
